target of assay: Steroid 21-hydroxylase (Homo sapiens)
Sequence (P08686 whole entry): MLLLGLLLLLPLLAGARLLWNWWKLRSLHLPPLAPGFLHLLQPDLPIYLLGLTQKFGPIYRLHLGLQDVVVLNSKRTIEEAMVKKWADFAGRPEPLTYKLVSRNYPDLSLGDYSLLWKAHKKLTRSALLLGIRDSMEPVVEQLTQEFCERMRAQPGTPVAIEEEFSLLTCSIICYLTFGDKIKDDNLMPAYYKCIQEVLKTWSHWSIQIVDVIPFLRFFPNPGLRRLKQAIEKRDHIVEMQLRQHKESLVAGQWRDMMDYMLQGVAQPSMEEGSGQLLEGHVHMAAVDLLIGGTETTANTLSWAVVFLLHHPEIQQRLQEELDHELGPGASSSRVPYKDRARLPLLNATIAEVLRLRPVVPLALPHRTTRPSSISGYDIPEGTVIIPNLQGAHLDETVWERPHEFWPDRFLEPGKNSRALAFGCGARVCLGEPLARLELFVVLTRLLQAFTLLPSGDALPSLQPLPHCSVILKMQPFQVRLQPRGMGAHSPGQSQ
assay procedure: Inhibition of recombinant CYP21 (unknown origin) expressed in human AD293 cells using 17alpha-hydroxyprogesterone as substrate pretreated for 60 mins followed by substrate addition and measured after 45 mins by LC/MS analysis
Consider the following molecules; for each one, report its IC50.

Using the record for N=C(N)N1CCN(c2ccc(/C=C/c3cc(Cl)cc(Cn4ccnc4)c3)cc2)CC1 , report its IC50. ≥ 10 µM

# query: IC50 of entry N=C(N)N1CCN(c2ccc(/C=C/c3cc(Cl)cc(-c4ccncc4)c3)cc2)CC1 ≥ 10 µM

What does the record list as IC50 for N=C(N)N1CCN(c2ccc(/C=C/c3cc(F)cc(Cn4ccnc4)c3)cc2)CC1 ? ≥ 10 µM

// lookup IC50 for O=C(c1cccc([N+](=O)[O-])c1)N1CCN(c2ccc(/C=C/c3cc(Cl)cc(Cn4ccnc4)c3)cc2)CC1 ≥ 10 µM

Which IC50 value is on record for N#CCS(=O)(=O)N1CCN(c2ccc(/C=C/c3cc(F)cc(Cn4ccnc4)c3)cc2)CC1 ? ≥ 10 µM

Return reported IC50; argument: O=S(=O)(c1c[nH]cn1)N1CCN(c2ccc(/C=C/c3cc(Cl)cc(Cn4ccnc4)c3)cc2)CC1 ≥ 10 µM

Given the molecule Fc1cc(/C=C/c2ccc(N3CCN(C4=NCCO4)CC3)cc2)cc(Cn2ccnc2)c1 , what is its reported IC50? ≥ 10 µM

So what's the measured IC50 for this one? Oc1cc(/C=C/c2ccc(Br)cc2)cc(-n2ccnc2)c1 ≥ 10 µM

# query: IC50 of entry CS(=O)(=O)N1CCN(c2ccc(/C=C/c3cc(F)cc(Cn4ccnc4)c3)cc2)CC1 ≥ 10 µM

What value of measured IC50 is listed for N=C(N)N1CCN(c2ccc(/C=C/c3cc(F)cc(-c4ccncc4)c3)cc2)CC1 ? ≥ 10 µM

Name the recorded IC50 for O=[N+]([O-])c1cc(S(=O)(=O)N2CCN(c3ccc(/C=C/c4cc(Cl)cc(Cn5ccnc5)c4)cc3)CC2)ccc1Cl . ≥ 10 µM

Requested read-out: IC50. Entry: CC(=O)N1CCN(c2ccc(CCc3cc(F)cc(-c4ccncc4)c3)cc2)CC1 ≥ 10 µM

Using the record for O=C(c1cccnc1)N1CCN(c2ccc(/C=C/c3cc(Cl)cc(Cn4ccnc4)c3)cc2)CC1 , report its IC50. ≥ 10 µM
